Reference source for all entries: patent US20220348590A1

Molecular target: human recombinant COX2 (hCOX2) (UniProt P35354)
Assay: LCMS-based COX2 enzymatic inhibition assay (PGE2 quantification)
Assay type: biochemical
Parameters: COX2 2 minutes pge2/pge2d4 area ratio Avg; other: 2 minutes; readout pge2/pge2d4 area ratio; average; COX2 2 minutes pge2/pge2d4 area ratio Avg; LLE; average LLE; COX2 2 minutes pge2 area (counts) Avg; readout pge2 area (counts); other: 2 min; "ovine COX2 (oCOX2), human recombinant COX2 (hCOX2)"
Details: 2 minutes; readout pge2/pge2d4 area ratio; average; read-out: COX2 2 minutes pge2/pge2d4 area ratio Avg. IC50
Provide the reported IC50 of each item.
One number for each entry, in nM.

For orientation, consider the following solved cases.
- compound: "CCOc1ncc(NCc2cccs2)nc1-c1ccc(S(C)(=O)=O)cc1 [Compound 25]"
  targetEntity: "human recombinant COX2 (hCOX2) (UniProt P35354)"
  property: "IC50"
  uom: "nM"
  reportedMeasurement: 11.8
- compound: "CS(=O)(=O)c1ccc(-c2cnc3ccn(Cc4nccs4)c3n2)cc1 [Compound 176]"
  targetEntity: "human recombinant COX2 (hCOX2) (UniProt P35354)"
  property: "IC50"
  uom: "nM"
  reportedMeasurement: 532
- compound: "CS(=O)(=O)c1ccc(-c2cccc(NCc3ccn[nH]3)n2)cc1 [Compound 264]"
  targetEntity: "human recombinant COX2 (hCOX2) (UniProt P35354)"
  property: "IC50"
  uom: "nM"
  reportedMeasurement: 4620
- compound: "CS(=O)(=O)c1ccc(-c2cncc(NCc3ncco3)n2)cc1 [Compound 246]"
  targetEntity: "human recombinant COX2 (hCOX2) (UniProt P35354)"
  property: "IC50"
  uom: "nM"
  reportedMeasurement: 3270
- compound: "CS(=O)(=O)c1ccc(-c2cncc(SCc3ccco3)n2)cc1 [Compound 78]"
  targetEntity: "human recombinant COX2 (hCOX2) (UniProt P35354)"
  property: "IC50"
  uom: "nM"
  reportedMeasurement: 49.4

Working through the 5 compounds below one at a time, give IC50 for each.
1. CS(=O)(=O)c1ccc(-c2cc(NCc3ccoc3)ncn2)cc1 [Compound 239]
2. CS(=O)(=O)c1ccc(-c2cccc(NCc3ccc(F)o3)n2)cc1 [Compound 23]
3. Cn1ccc(CNc2cncc(-c3ccc(S(C)(=O)=O)cc3)n2)n1 [Compound 245]
4. CS(=O)(=O)c1ccc(-c2nc(OCc3cccs3)ccc2F)cc1 [Compound 101]
5. CS(=O)(=O)c1ccc(-c2cncc(NC(=O)c3cccs3)n2)cc1 [Compound 192]

Ans.
2740
11.4
3160
86.7
751
